- Test system: UO-31 renal
- test.name: NCI tumour cell line growth inhibition, 48 h
A collection of compounds and their measured TGI
observable: TGI (µM)

{"compound": "NC(=O)c1cc2c3ccccc3ccn2c1-c1ccccc1", "measurement.target": "UO-31 renal", "observable": "TGI", "comparison.symbol": "=", "assay.value": 26.3}
{"compound": "COC(=O)[C@@H]1CCCCC[C@H]2C(CO)=C(C)C(=O)C12 (stereo not given in full)", "measurement.target": "UO-31 renal", "observable": "TGI", "comparison.symbol": ">", "assay.value": 100}
{"compound": "COC(=O)[C@]12CCC(C)[C@H](C)[C@H]1C1=CCC3[C@@]4(C)CC[C@H](OC(C)=O)C(C)(C)C4CC[C@@]3(C)C1(C)C(O)C2 (stereo not given in full)", "measurement.target": "UO-31 renal", "observable": "TGI", "comparison.symbol": ">", "assay.value": 100}
{"compound": "O=[N+]([O-])c1ccc(NC(=S)N=Nc2c(O)[nH]c3ccc([N+](=O)[O-])cc23)cc1", "measurement.target": "UO-31 renal", "observable": "TGI", "comparison.symbol": "=", "assay.value": 45.1}
{"compound": "Cc1ccccc1C1=C(C(=O)Nc2ccc(Cl)c(Cl)c2)NC(=S)NC1N (stereo not given)", "measurement.target": "UO-31 renal", "observable": "TGI", "comparison.symbol": ">", "assay.value": 100}
{"compound": "CC1C(=O)OCC2=CCN3CCC(OC(=O)C(C)C1(C)O)C23 (stereo not given)", "measurement.target": "UO-31 renal", "observable": "TGI", "comparison.symbol": ">", "assay.value": 100}
{"compound": "CN(C)CC1CCC/C1=N\\O (stereo not given)", "measurement.target": "UO-31 renal", "observable": "TGI", "comparison.symbol": ">", "assay.value": 100}
{"compound": "CCc1c(CNc2ccc(C(=O)NC(CC(=O)O)C(=O)O)cc2)ccc2nc(N)nc(N)c12 (stereo not given)", "measurement.target": "UO-31 renal", "observable": "TGI", "comparison.symbol": ">", "assay.value": 1000}
{"compound": "O=C1c2cc(Cl)ccc2-c2c1c1ccc([N+](=O)[O-])cc1c(=O)n2CCCBr", "measurement.target": "UO-31 renal", "observable": "TGI", "comparison.symbol": "=", "assay.value": 31}
{"compound": "CCOc1ccc(Nc2nc(N)nc(N)c2N)cc1", "measurement.target": "UO-31 renal", "observable": "TGI", "comparison.symbol": "=", "assay.value": 74.3}
